assay: pKCu, stability constant of the Cu2+ chelate by Cu ion electrode method; type: physicochemical; conditions: log stability constant with Cu2+, 25° C., 0.1M triethanolamine-HCl pH 8
Below: a set of entries, each annotated with reported pKCu (25° C.).
// return just the number, without any unit appended

>  <COMPOUND>
CC(C)c1ccc(O)c(=O)cc1

>  <REPORTED MEASUREMENT>
7.9

$$$$

Can you share its pKCu (25° C.)? I mean this compound: O=P(O)(O)OP(=O)(O)OP(=O)(O)O [Sodium Tripolyphosphate, reference compound]
6.8

I would be grateful if you could share the reported pKCu (25° C.) for O=C([O-])CC(O)(CC(=O)[O-])C(=O)[O-].[Na+].[Na+].[Na+] [Trisodium Citrate, reference compound] .
5.2

Request the reported pKCu (25° C.) associated with CC(C)c1cccc(O)c(=O)c1
7.9

Origin of measurements: patent US6335398B1
